Catalogue of pIC50 readings, one per entry.
- study system: affinity purified β2GPI-dependent antiphospholipid antibody
- assay explanation: Competitive inhibition ELISA: recombinant β2GPI proteins compete for antibody binding to coated full length recombinant β2GPI
- Set-up: species or system human
- settings: Ab 6632; read-out: 50% (concentration to give 50% inhibition)
pIC50: −log10 of the molar value.

molecule: ---45: recombinant β2GPI deletion mutant with domains 4, 5 (protein) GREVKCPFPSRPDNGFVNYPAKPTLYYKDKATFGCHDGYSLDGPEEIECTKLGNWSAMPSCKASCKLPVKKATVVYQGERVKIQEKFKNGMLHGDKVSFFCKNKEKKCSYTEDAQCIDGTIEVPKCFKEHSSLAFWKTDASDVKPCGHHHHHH
pIC50: < 4.40

molecule: recombinant β2GPI domain 5 with GlyHis6 (----5) (protein) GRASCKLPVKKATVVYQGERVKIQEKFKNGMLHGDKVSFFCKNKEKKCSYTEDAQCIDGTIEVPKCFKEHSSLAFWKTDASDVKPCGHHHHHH
pIC50: < 4.33
